Reference source for all entries: ChEMBL document CHEMBL1795224

# System: Radical scavenging activity
# ASSAY PROTOCOL: Antioxidant activity assessed as DPPH free radical scavenging activity at 20 ug/4ml after 30 mins
# Assay type: functional
REPORTED PROPERTY: Activity

Prompt: Tell me the measured Activity of O=[N+]([O-])c1ccc(NCn2nc3oc4c(Cl)cc(Cl)cc4n3c2=S)cc1 , please.
Completion: 18%

Prompt: Tell me the measured Activity of CCOC(=O)CSc1nnc2oc3c(Cl)cc(Cl)cc3n12 , please.
Completion: 65.7%

***
Prompt: Tell me the measured Activity of Cc1cc(C(C)(C)C)c(O)c(C(C)(C)C)c1 , please.
Completion: 16.2%

Prompt: Tell me the measured Activity of S=c1[nH]nc2oc3c(Cl)cc(Cl)cc3n12 , please.
Completion: 74.8%

Prompt: Tell me the measured Activity of CCOC(=O)CSc1nc2cc(Cl)cc(Cl)c2o1 , please.
Completion: 9.49%

Prompt: Tell me the measured Activity of NNc1nc2cc(Cl)cc(Cl)c2o1 , please.
Completion: 81.5%

Prompt: Tell me the measured Activity of Sc1nc2cc(Cl)cc(Cl)c2o1 , please.
Completion: 32.1%

###

# System: Metaphire posthuma
# ASSAY PROTOCOL: Anthelmintic activity against Pheretima posthuma assessed as death time at 3 %
# Format: functional
Rule: Time of 6 min or more gives MET; anything lower gives NOT MET.

Worked set:
Prompt: Does the compound NNc1nc2cc(Cl)cc(Cl)c2o1 have recorded Time that is 6 min or more?
Completion: NOT MET

Prompt: Does the compound CCOC(=O)CSc1nnc2oc3c(Cl)cc(Cl)cc3n12 have recorded Time that is 6 min or more?
Completion: NOT MET

***
Prompt: Does the compound CCOC(=O)CSc1nc2cc(Cl)cc(Cl)c2o1 have recorded Time that is 6 min or more?
Completion: NOT MET

Prompt: Does the compound S=c1[nH]nc2oc3c(Cl)cc(Cl)cc3n12 have recorded Time that is 6 min or more?
Completion: NOT MET

Prompt: Does the compound O=[N+]([O-])c1ccc(NCn2nc3oc4c(Cl)cc(Cl)cc4n3c2=S)cc1 have recorded Time that is 6 min or more?
Completion: MET
